system-tested: rat µ opioid receptor (rat, UniProt P33535 1-398)
Sequence (P33535 whole entry): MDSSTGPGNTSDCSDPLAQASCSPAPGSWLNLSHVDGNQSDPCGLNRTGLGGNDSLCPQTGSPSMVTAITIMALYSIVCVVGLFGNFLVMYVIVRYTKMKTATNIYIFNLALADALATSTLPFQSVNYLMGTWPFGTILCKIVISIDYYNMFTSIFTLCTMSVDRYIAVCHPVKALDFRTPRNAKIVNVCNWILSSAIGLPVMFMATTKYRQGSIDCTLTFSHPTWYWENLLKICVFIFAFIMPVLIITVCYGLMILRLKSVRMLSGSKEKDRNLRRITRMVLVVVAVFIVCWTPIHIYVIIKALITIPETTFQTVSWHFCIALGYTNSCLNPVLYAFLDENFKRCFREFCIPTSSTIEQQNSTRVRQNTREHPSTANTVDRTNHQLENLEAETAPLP
method-description: cell-based or functional assay
Square brackets hold non-standard residues; d marks the D form. * marks the point of attachment. OBzl(3,5-(CF3)2) = FC(F)(F)c1cc(CO*)cc(C(F)(F)F)c1
measurement-type: [35S]GTP-γ-S binding Emax

H-Y[dA]GFMPLW-{OBzl(3,5-(CF3)2)} (also: TFA salt, TFA salt; also called TY005; TY5) [H-Tyr-D-Ala-Gly-Phe-Met-Pro-Leu-Trp-O-3,5-Bzl(CF3)2]: 45%
H-Y[dA]GFFPLW-{OBzl(3,5-(CF3)2)} (also: TFA salt, TFA salt; also called TY003) [H-Tyr-D-Ala-Gly-Phe-Phe-Pro-Leu-Trp-O-3,5-Bzl(CF3)2]: 41%
H-Y[dA]GFLPLW-{OBzl(3,5-(CF3)2)} (also: TFA salt, TFA salt; also called TY004) [H-Tyr-D-Ala-Gly-Phe-Leu-Pro-Leu-Trp-O-3,5-Bzl(CF3)2]: 46%
H-Y[dA]GFGPLW-{OBzl(3,5-(CF3)2)} (also: TFA salt, TFA salt; also called TY006) [H-Tyr-D-Ala-Gly-Phe-Gly-Pro-Leu-Trp-O-3,5-Bzl(CF3)2]: 39%

Next up:
# lookup: [35S]GTP-γ-S binding Emax of H-Y[dA]GF[dF]PLW-{OBzl(3,5-(CF3)2)} (also: TFA salt, TFA salt; also called TY007) [H-Tyr-D-Ala-Gly-Phe-D-Phe-Pro-Leu-Trp-O-3,5-Bzl(CF3)2]
22%
